- System: T-cell activation in human whole blood
- method_description: Example 5: IFN-g, IL-2 and IL-17A release in thapsigargin stimulated human whole blood
- Type: cell-based
- conditions: 24 Hr, at least 2 replicate experiments, read-out: Average IC50, IFN-g
# IC50 per entry
Provide only the numeric value, understood in pM.

For orientation, consider the following solved cases.
Enquiry: I'm curious: which IC50 was measured for H-P[Nle]D[Nle]RC(1)SASVEC(2)KQKC(3)LKAIGSIFGKC(1)[Nle]NKKC(2)KC(3)YPR-NH2 [Peptide 42] tested on T-cell activation in human whole blood?
Return: 46

Enquiry: I'm curious: which IC50 was measured for H-C(1)SASVEC(2)KQKC(3)LKAIGSIFGKC(1)[Nle]NKKC(2)KC(3)YPR-NH2 [Peptide 108] tested on T-cell activation in human whole blood?
Return: 81

Enquiry: I'm curious: which IC50 was measured for H-P[Nle]E[Nle]RC(1)SASVEC(2)KQKC(3)LAAIGSIFGKC(1)[Nle]NKKC(2)KC(3)YPR-OH [Peptide 100] tested on T-cell activation in human whole blood?
Return: 110

Enquiry: I'm curious: which IC50 was measured for H-NMDMRC(1)SASVEC(2)KQKC(3)LAAIGSIFGKC(1)MNKKC(2)KC(3)YPR-NH2 [Peptide 53] tested on T-cell activation in human whole blood?
Return: 110

// next item, IC50 requested
Enquiry: I'm curious: which IC50 was measured for H-NMDMRC(1)SASVEC(2)KQKC(3)LKAIGSIFGKC(1)MNKKC(2)KC(3)YPR-OH [Peptide 3] tested on T-cell activation in human whole blood?
Return: 58

---

- target_under_test: Kv1.6 (Homo sapiens, UniProt P17658)
- Construct: expressed in transfected cells
- Sequence (P17658 whole entry): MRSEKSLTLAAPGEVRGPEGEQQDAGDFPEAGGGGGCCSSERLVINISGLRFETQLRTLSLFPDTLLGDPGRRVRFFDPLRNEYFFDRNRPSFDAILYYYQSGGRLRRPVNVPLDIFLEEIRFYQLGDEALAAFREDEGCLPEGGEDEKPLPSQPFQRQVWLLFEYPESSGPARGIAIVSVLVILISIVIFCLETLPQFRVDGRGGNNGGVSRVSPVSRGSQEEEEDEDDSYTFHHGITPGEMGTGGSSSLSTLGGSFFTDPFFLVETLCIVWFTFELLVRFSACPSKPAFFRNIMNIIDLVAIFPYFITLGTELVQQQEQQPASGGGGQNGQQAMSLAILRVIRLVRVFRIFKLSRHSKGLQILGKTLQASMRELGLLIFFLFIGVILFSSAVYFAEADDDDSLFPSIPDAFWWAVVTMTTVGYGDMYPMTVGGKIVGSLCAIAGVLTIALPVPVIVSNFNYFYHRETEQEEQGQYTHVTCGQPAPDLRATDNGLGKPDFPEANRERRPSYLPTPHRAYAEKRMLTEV
- method_description: Patch clamp assay (QPatch), Kv1.6
- Format: cell-based
- conditions: ratio of IC50 Kv1.6/Kv1.3
hey, just use label 1 if measured Selectivity Kv1.6/Kv1.3 is less than 3000, otherwise label 0

For orientation, consider the following solved cases.
Enquiry: Does the reported Selectivity Kv1.6/Kv1.3 of the following substance sit strictly below 3000? H-NMDMRC(1)SASVEC(2)KQKC(3)LKAYGSIFGKC(1)MNKKC(2)KC(3)YPR-NH2 [Peptide 59]
Return: label 0

Enquiry: Does the reported Selectivity Kv1.6/Kv1.3 of the following substance sit strictly below 3000? H-NMDMRC(1)SASVEC(2)AQKC(3)LKAIGSIFGKC(1)MNKKC(2)KC(3)YPR-NH2 [Peptide 31]
Return: label 0

Enquiry: Does the reported Selectivity Kv1.6/Kv1.3 of the following substance sit strictly below 3000? H-QMDMRC(1)SASVEC(2)KQKC(3)LKAIGRGFGKC(1)MNKKC(2)KC(3)YPR-OH [Peptide 2]
Return: label 1

Enquiry: Does the reported Selectivity Kv1.6/Kv1.3 of the following substance sit strictly below 3000? H-NMDMRC(1)SISVEC(2)KQKC(3)LKAIGSIFGKC(1)MNKKC(2)KC(3)YPR-NH2 [Peptide 27]
Return: label 0

New cases:
Enquiry: Does the reported Selectivity Kv1.6/Kv1.3 of the following substance sit strictly below 3000? H-NMDMRC(1)SASVEC(2)KQKC(3)LDAIGSIFGKC(1)MNKKC(2)KC(3)YPR-NH2 [Peptide 21]
Return: label 0

Enquiry: Does the reported Selectivity Kv1.6/Kv1.3 of the following substance sit strictly below 3000? H-N[Nle]D[Nle]RC(1)SASVEC(2)KQKC(3)LKAIGSIFGKC(1)[Nle]NKKC(2)KC(3)YPR-NH2 [Peptide 41]
Return: label 0
